# system-tested: T1, Soluble IGF-1R (R&D Systems, Cat. # 391-GR) (UniProt P08069 31-935, limits assumed)
# T1 construct: extracellular domain; bought; also called sIGF-1R
# test-description: phage ELISA ratios compared
readout-type: IGF-1R/IR ratio comparison

Some binders with known IGF-1R/IR ratio comparison results, for comparison:
Asked: Any idea what its IGF-1R/IR ratio comparison is? The binder is ASSASGFYELLQRLAGLGLEV [20E2B-3-C4-IGFR]
Given back: 6.2

Asked: Any idea what its IGF-1R/IR ratio comparison is? The binder is AETSVQVGWIRLQSVWPGEHWNTVDPFYHKLSELLRGSGA [B6L-4-D7-IR]
Given back: 3.4

Asked: Any idea what its IGF-1R/IR ratio comparison is? The binder is GFREGNFYEWFQAQVT [E4Dα-4-H2-IR]
Given back: 4.1

Asked: Any idea what its IGF-1R/IR ratio comparison is? The binder is AICDAGFHEHFYDWFALQVSDCGRQS [H2CA-2-B11-IGFR]
Given back: 3

Asked: Any idea what its IGF-1R/IR ratio comparison is? The binder is SQAGSAFYAWFDQVLRTVHSA [20E2Bβ-4-G6-IR]
Given back: 3.3

Others:
Asked: Any idea what its IGF-1R/IR ratio comparison is? The binder is RGQSDAFYSGLWALIGLSDG [R20β-4-A6-IR]
Given back: 17.3

Asked: Any idea what its IGF-1R/IR ratio comparison is? The binder is YRGMLVLGRSSDGAGKVAFERPARIGQTVFAVNFYDWFV [A6L-0-E6-IR]
Given back: 17

FYI, the data here is from patent US6875741.
